Measured koff, listed per entry for reference.
- experimental-system: T1, recombinant human VEGF165 (human, UniProt P15692 27-191)
- T1 construct: mature; Isoform VEGF165 of the entry; also called hVEGF165; hVEGF
- T1 sequence (P15692 other isoform, or with tags, fused parts or gaps): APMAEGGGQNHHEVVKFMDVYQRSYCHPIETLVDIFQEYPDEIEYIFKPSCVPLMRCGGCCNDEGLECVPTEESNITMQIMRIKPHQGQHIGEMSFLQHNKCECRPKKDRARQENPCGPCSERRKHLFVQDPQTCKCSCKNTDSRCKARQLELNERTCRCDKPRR
- assay: Biacore SPR, VEGF immobilized, pH 5
Use s⁻¹ as the unit, but write only the number.

INSERT INTO measurements (binder, unit_symbol, recorded_value) VALUES
  ('578-max-min (scFv, also called Protein Nr; 902) scFv: EIVMTQSPSTLSASVGDRVIITCQASEIIHSWLAWYQQKPGKAPKLLIYLASTLASGVPSRFSGSGSGTQFTLTISSLQPDDFATYYCQNVYLASTNGANFGQGTKLTVLGGGGGSGGGGSGGGGSGGGGSEVQLVESGGGLVQPGGSLRLSCAASGFSLTDYYYMTWVRQAPGKGLEWVSFIDPDDDPYYATWAKGRFTISRDNSKNTLYLQMNSLRAEDTAVYYCAKGDHNSGWGLDIWGQGTLVTVSS', 's⁻¹', 0.00883);

// koff value for 578minmax (scFv, also called ESBA903; 903) scFv: EIVMTQSPSTLSASVGDRVIITCQASEIIHSWLAWYQQKPGKAPKLLIYLASTLASGVPSRFSGSGSGAEFTLTISSLQPDDFATYYCQNVYLASTNGANFGQGTKLTVLGGGGGSGGGGSGGGGSGGGGSEVQLVESGGGLVQPGGSLRLSCTASGFSLTDYYYMTWVRQAPGKGLEWVGFIDPDDDPYYATWAKGRFTISRDTSKNTVYLQMNSLRAEDTAVYYCAGGDHNSGWGLDIWGQGTLVTVSS : 0.000504

// koff value for 578min_max V89L (scFv, the VH entry already carries V89L; tied by name; also called Protein Nr; 980) scFv: EIVMTQSPSTLSASVGDRVIITCQASEIIHSWLAWYQQKPGKAPKLLIYLASTLASGVPSRFSGSGSGAEFTLTISSLQPDDFATYYCQNVYLASTNGANFGQGTKLTVLGGGGGSGGGGSGGGGSGGGGSEVQLVESGGGLVQPGGSLRLSCTASGFSLTDYYYMTWVRQAPGKGLEWVGFIDPDDDPYYATWAKGRFTISRDTSKNTLYLQMNSLRAEDTAVYYCAGGDHNSGWGLDIWGQGTLVTVSS : 0.00187
